Reference source for all entries: patent US20230348459A1

- Protocol: Apparent solubility in phosphate buffer at pH 7.4
- Type: physicochemical
- Conditions: aqueous buffer, kinetic from dmso stock, phosphate buffer pH 7.4, 25° C.
Known solubility at 2 h of a selection of molecules
Report as a plain number; the unit µM is understood.

C[C@@H]1Cc2c([nH]c3ccccc23)C(c2c(F)cc(N[C@H]3CCN(CCCF)C3)cc2F)N1CC(F)(F)CO (stereo in doubt) :: 4

Pending molecule:
# get_value(readout='solubility at 2 h', item= `C[C@@H]1Cc2c([nH]c3ccccc23)[C@@H](c2ccc(N[C@H]3CCN(CCCF)C3)cn2)N1CC(F)(F)F` )
92

###

- System tested: voltage-gated potassium ion channel hERG (Homo sapiens (Human), UniProt Q12809)
- Sequence (Q12809 whole entry): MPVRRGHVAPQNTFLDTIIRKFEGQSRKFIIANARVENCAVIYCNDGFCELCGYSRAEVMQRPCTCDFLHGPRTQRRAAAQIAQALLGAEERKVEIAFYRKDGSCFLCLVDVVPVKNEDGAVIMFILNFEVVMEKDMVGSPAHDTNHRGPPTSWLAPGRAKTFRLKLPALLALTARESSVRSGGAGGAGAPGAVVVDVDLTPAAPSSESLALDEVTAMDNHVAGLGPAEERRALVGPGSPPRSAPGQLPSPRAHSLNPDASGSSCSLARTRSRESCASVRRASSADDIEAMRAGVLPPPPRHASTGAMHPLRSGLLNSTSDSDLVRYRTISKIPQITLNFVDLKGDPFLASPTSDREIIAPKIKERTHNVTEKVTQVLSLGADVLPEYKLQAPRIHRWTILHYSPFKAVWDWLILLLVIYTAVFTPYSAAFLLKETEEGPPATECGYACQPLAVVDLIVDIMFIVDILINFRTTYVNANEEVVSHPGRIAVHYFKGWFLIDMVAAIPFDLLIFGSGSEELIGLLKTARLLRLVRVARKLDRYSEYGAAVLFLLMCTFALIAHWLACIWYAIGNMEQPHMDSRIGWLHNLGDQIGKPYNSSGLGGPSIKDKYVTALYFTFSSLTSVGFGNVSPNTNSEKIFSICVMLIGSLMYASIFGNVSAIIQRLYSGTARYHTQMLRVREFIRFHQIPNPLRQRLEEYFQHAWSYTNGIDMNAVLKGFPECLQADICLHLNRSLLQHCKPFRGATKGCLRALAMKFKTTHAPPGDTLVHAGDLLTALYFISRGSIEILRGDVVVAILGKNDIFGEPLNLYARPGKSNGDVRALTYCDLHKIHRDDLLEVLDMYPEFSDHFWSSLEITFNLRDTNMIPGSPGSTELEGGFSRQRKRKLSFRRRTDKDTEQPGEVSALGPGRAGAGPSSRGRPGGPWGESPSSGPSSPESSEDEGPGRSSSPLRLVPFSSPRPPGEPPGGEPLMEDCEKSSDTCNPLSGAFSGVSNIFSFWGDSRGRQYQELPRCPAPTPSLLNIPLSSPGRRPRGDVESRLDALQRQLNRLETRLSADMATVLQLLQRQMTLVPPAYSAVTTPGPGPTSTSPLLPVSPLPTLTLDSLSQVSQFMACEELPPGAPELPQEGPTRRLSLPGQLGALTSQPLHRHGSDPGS
- Protocol: hERG manual patch clamp in HEK293 cells
- Conditions: HEK293 cells stably expressing hERG
Quantity measured: IC50 (µM)
Just the number please, in µM, no unit attached.

These recorded examples may help you get a feel for the data.
C[C@@H]1Cc2c([nH]c3ccccc23)C(c2c(F)cc(N[C@H]3CCN(CCCF)C3)cc2F)N1CC(F)(F)F (stereo in doubt) :: 3.7
C[C@@H]1Cc2c([nH]c3ccccc23)[C@@H](c2ccc(N[C@H]3CCN(CCCF)C3)cn2)N1CC(F)(F)F :: 10

Here's the next entry for you.
What does the record list as IC50 for C[C@@H]1Cc2c([nH]c3ccccc23)C(c2c(F)cc(N[C@H]3CCN(CCCF)C3)cc2F)N1CC(F)(F)CO (stereo in doubt) ?
8.4

###

- System tested: UniProt:P10635
- Sequence (P10635 whole entry): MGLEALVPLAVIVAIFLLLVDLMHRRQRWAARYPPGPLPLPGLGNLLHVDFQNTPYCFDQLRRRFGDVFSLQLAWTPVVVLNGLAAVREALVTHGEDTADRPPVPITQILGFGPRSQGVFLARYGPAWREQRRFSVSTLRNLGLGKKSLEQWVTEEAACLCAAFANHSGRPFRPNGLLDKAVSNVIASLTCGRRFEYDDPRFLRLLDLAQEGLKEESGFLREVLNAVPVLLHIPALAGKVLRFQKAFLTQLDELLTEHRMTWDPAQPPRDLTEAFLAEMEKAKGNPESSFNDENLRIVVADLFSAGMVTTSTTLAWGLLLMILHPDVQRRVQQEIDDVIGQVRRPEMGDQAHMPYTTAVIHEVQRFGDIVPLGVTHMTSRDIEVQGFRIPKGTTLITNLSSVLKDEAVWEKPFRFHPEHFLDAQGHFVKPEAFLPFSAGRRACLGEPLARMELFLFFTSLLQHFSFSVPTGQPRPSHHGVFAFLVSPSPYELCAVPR
- Protocol: Inhibition of CYP2D6 enzymatic activity in human liver microsomes
- Assay type: in vitro ADME
- Conditions: substrate dextromethorphan
Listed here: items and their measured IC50.

C[C@@H]1Cc2c([nH]c3ccccc23)C(c2c(F)cc(N[C@H]3CCN(CCCF)C3)cc2F)N1CC(F)(F)CO (stereo in doubt) [Example 7] :: 23 µM
C[C@@H]1Cc2c([nH]c3ccccc23)[C@@H](c2ccc(N[C@H]3CCN(CCCF)C3)cn2)N1CC(F)(F)F [Example 3] :: > 30 µM

Given the entry C[C@@H]1Cc2c([nH]c3ccccc23)C(c2c(F)cc(N[C@H]3CCN(CCCF)C3)cc2F)N1CC(F)(F)F (stereo in doubt) [Example 4] , report its measured IC50.
27 µM

###

- System tested: estrogen receptors in MCF7 cells (Homo sapiens (Human), UniProt P03372)
- Sequence (P03372 whole entry): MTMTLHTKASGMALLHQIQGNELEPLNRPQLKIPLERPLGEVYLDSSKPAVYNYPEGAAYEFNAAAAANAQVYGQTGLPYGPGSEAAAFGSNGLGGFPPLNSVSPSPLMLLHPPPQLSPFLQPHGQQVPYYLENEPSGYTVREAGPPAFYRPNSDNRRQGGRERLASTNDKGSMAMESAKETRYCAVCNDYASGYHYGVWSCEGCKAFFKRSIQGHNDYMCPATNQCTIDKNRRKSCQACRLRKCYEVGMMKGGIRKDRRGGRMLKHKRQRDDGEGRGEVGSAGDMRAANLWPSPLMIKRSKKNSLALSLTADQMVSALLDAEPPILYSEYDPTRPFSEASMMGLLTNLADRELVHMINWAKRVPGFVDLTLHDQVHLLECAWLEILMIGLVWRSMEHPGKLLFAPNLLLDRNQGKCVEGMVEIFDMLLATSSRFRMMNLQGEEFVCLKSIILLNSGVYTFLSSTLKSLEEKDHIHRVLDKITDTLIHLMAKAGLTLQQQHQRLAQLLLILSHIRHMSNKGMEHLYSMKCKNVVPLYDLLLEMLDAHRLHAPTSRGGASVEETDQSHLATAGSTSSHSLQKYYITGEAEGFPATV
- Protocol: Degradation of estrogen receptors in MCF7 cells (in-cell western)
- Assay type: cell-based
- Conditions: 24 hours treatment, read-out: ER level DC50
Quantity measured: log10 DC50 (log10 of the value in nM)
Form field - Quantity: DC50; Unit: nM; Scale: log10

Some entries whose results are on file:
C[C@@H]1Cc2c([nH]c3ccccc23)[C@@H](c2ccc(N[C@@H]3CCN(CCCF)C3)cn2)N1CC(F)(F)F :: 0.93
C[C@@H]1CN(CCCF)C[C@H]1Nc1cc(F)c([C@@H]2c3[nH]c4ccccc4c3C[C@@H](C)N2CC(F)(F)F)c(F)c1 (stereo in doubt) :: -0.30
C[C@@H]1Cc2c([nH]c3ccccc23)[C@@H](c2ccc(NC3CCN(CCCF)C3)cn2)N1CC(F)(F)F (stereo partly shown) :: -0.39
C[C@@H]1Cc2c([nH]c3ccccc23)[C@@H](c2ccc(N[C@H]3CCN(CCCF)C3)cn2)N1CC(F)(F)F :: -0.82
C[C@@H]1Cc2c([nH]c3ccccc23)C(c2c(F)cc(N[C@H]3CCN(CCCF)C3)cc2F)N1CC(F)(F)CO (stereo in doubt) :: -1.22
C[C@@H]1Cc2c([nH]c3ccccc23)C(c2c(F)cc(N[C@H]3CCN(CCCF)C3)cc2F)N1CC(F)(F)F (stereo in doubt) :: -1.40

Moving on to another compound below.
Fill in: log10 DC50 of C[C@@H]1Cc2c([nH]c3ccccc23)[C@@H](c2c(F)cc(N[C@@H]3CN(CCCF)C[C@H]3F)cc2F)N1CC(F)(F)F (stereo in doubt) is ___
-0.24
